molecular target: FGFR1 (h) (Homo sapiens, UniProt P11362); assay: FGFR1 (enzymatic assay), TR-FRET; assay type: biochemical; conditions: average values if tested multiple times, read-out: FGFR 1 pIC50 (converted)
Sequence (P11362 22-822): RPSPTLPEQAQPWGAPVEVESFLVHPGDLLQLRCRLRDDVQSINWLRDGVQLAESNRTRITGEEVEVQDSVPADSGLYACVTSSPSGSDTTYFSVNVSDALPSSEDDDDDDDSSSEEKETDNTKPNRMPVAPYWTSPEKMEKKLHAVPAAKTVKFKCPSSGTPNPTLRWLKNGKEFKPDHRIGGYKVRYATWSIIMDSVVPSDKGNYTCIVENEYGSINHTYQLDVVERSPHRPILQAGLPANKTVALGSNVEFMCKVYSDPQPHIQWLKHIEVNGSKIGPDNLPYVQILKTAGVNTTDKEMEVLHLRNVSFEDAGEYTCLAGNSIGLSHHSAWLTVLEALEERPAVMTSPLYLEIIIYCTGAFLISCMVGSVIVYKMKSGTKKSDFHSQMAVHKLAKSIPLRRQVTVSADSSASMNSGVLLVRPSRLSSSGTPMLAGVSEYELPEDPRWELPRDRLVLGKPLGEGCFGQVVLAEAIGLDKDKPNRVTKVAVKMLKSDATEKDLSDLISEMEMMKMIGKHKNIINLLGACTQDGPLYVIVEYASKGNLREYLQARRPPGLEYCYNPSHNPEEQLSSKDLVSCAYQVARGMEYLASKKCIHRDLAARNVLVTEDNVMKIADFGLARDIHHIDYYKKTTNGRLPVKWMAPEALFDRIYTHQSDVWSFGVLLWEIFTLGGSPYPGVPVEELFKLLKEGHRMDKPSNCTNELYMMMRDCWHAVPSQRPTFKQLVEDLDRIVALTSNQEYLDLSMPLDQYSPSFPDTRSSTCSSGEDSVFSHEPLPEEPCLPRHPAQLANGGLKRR
metric name: IC50 (nM)
Give the number; nM is assumed, so skip it.

Worked set:
molecule: COc1cc(OC)cc(N(Cc2ncc[nH]2)c2ccc3ncc(-c4cnn(C)c4)nc3n2)c1 [Compound 24]
IC50 (nM): 0.55
--
molecule: CNCCn1/c(=N/c2cc(OC)cc(OC)c2F)ccc2ncc(-c3cnn(C)c3)nc21
IC50 (nM): 2.45
--
molecule: COc1cc(OC)c(F)c(N(CC2CCC(=O)N2)c2ccc3ncc(-c4cnn(C)c4)nc3n2)c1 (stereo not shown) [Compound 52]
IC50 (nM): 2.57

Please look at the following molecule next.
The value of IC50 measured for the molecule COc1cc(OC)c(F)c(N(Cc2ncc[nH]2)c2ccc3ncc(-c4cnn(C)c4)nc3n2)c1 [Compound 23] turned out to be 0.741
